Target: T1, hPIF1HD P291A (human, UniProt Q9H611 206-620, P291A)
T1 sequence: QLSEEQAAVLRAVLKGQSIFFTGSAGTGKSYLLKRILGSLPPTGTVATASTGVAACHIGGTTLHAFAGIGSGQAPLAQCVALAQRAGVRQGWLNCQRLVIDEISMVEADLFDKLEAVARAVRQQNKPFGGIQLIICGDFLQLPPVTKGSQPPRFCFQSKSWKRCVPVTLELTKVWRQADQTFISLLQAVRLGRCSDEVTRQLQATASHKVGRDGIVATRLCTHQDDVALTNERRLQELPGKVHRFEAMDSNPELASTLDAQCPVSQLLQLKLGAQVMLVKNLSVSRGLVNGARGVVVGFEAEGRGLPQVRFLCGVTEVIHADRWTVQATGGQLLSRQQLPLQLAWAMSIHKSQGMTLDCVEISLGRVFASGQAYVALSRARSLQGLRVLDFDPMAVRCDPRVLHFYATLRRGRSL
Test: EMSA; no nucleotide; apparent; 20 mM HEPES-NaOH pH 7.5 (Results say pH 7.2), 135 mM NaCl, 5% glycerol, 1 mM DTT, 1 mg/ml BSA, 20 min at 20 C; 0.4 nM T(35); G4 assay: 0.1 nM G4 DNA, 2% PEG 8000 instead of glycerol, 5 uM T(35) competitor
Settings: protein: recombinant; tags: His tag removed, GSRM left; label: 5' 32P (PNK)
pKd: −log10 of the molar value.

| Binder | pKd |
| --- | --- |
| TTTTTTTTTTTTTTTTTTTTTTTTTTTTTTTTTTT (ssDNA) [poly-T(35)] | 8.72 |
